src = patent US20250197467A1

tgt: T1, IL-18 receptor (IL-18Rαβ) on cells (UniProt Q13478 19-541; O95256 20-599, limits assumed)
T1 sequence (looked up) 1: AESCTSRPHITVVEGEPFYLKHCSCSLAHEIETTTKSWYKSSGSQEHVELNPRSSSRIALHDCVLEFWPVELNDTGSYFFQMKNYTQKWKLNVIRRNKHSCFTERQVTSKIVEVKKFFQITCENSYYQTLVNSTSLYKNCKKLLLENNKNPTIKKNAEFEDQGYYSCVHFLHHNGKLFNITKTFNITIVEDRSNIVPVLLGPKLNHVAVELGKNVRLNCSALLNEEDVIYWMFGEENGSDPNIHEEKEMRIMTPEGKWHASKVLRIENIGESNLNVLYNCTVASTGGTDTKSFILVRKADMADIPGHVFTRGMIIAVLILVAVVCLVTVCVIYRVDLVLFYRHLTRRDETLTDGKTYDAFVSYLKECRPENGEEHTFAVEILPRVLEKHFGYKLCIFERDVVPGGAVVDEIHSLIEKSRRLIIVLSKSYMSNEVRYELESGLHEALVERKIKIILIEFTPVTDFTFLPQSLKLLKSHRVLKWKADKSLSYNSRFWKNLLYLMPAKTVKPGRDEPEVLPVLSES
T1 sequence (looked up) 2: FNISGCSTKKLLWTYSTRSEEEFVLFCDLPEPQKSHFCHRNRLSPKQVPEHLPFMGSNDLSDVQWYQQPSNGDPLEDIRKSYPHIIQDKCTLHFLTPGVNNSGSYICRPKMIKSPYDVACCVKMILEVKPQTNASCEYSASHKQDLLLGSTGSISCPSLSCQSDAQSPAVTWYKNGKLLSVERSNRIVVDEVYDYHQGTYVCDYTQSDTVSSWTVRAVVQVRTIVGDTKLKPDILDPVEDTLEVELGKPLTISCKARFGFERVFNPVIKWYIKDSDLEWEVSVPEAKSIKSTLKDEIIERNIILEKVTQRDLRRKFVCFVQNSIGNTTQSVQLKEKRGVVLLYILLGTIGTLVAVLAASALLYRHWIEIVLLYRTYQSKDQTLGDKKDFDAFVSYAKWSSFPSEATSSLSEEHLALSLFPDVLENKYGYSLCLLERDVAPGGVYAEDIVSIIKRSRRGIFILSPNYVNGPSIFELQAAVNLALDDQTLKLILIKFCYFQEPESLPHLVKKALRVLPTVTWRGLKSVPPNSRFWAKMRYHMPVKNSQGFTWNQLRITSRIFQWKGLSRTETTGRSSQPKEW
run.description: cell-based or functional assay
So basically, if EC50 (IFNγ stimulation, NK92) comes in under 0.07 nM it's YES, and if it's 0.07 nM or more it's NO.

q: I'd appreciate it if you could check whether C164 (ligand) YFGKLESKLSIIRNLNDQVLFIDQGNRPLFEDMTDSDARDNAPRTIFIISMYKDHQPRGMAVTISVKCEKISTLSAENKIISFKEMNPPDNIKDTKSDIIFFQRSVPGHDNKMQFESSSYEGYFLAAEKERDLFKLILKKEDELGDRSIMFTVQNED has EC50 (IFNγ stimulation, NK92) smaller than 0.07 nM.
a: NO

q: I'd appreciate it if you could check whether C154 (ligand) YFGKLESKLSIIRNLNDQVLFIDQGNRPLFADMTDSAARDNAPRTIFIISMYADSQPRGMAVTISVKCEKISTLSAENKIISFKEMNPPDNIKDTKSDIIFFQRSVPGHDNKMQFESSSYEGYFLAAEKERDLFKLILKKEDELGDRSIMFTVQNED has EC50 (IFNγ stimulation, NK92) smaller than 0.07 nM.
a: YES

q: I'd appreciate it if you could check whether SEQ ID NO 43 (ligand) GFGKLKSKLSVIRNLNDQVLFIDQGNRPLFEDMTDSDCRDNAPRTIFIISMYADAQPRGMAVTISVKCEKISTLSCENKIISFKEMNPPDNIKDTKSDIIFFQRSVPGHDNKMQFESSSYEGYFLACEKERDLFKLILKKEDELGDRSIMFTVQNED has EC50 (IFNγ stimulation, NK92) smaller than 0.07 nM.
a: NO

q: I'd appreciate it if you could check whether SEQ ID NO 60 (ligand) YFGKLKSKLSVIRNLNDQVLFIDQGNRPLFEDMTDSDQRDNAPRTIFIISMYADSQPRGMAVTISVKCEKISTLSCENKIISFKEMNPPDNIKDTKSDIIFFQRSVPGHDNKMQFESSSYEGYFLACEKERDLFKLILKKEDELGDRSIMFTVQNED has EC50 (IFNγ stimulation, NK92) smaller than 0.07 nM.
a: YES

q: I'd appreciate it if you could check whether SEQ ID NO 50 (ligand) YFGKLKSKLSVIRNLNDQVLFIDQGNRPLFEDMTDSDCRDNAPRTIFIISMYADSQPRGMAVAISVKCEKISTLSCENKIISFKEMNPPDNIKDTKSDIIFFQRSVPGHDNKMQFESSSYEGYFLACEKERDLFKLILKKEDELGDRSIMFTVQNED has EC50 (IFNγ stimulation, NK92) smaller than 0.07 nM.
a: YES

q: I'd appreciate it if you could check whether C155 (ligand) YFGKLESKLSIIRNLNDQVLFIDQGNRPLFEDMTDSDARANAPRTIFIISMYADSQPRGMAVTISVKCEKISTLSAENKIISFKEMNPPDNIKDTKSDIIFFQRSVPGHDNKMQFESSSYEGYFLAAEKERDLFKLILKKEDELGDRSIMFTVQNED has EC50 (IFNγ stimulation, NK92) smaller than 0.07 nM.
a: YES
